The reported measurements were obtained from the RNAGym collection of RNA variant scans (doi:10.1126/science.aae0568).

B1: tRNA (parent)
chain: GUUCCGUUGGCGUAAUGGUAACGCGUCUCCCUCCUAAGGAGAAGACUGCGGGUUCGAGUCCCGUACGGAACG

# Variants of: B1
# protocol text: yeast fitness relative to wild type (ratio to wild type); higher = fitter; tRNA-Arg(CCU), competitive growth, 37 C, YPD
Fewer inactive variants are shown than the library holds.
assay metric: yeast fitness
Enter a number only.

These solved cases illustrate the format of a correct answer.
Req: Which yeast fitness value belongs to GUUCCGUCGGCGUAAUGGUAACGCGUCUCCCUCCUAAGGAGAAGACUGCGGGUUCGUGUCCCGUACGGAACG [U8C A57U] ?
Resp: 0.788

Req: Which yeast fitness value belongs to GUUCCGUUGGCGUAAUGGUGACGCGUCUCCCUCCUAACGCGAAGACUGCGGGUUCGAGUCCCGUACGGAACG [A20G G38C A40C] ?
Resp: 0.662

Req: Which yeast fitness value belongs to GUUCCGUUGGCGUAAUGGUAACGCGUCUCCCUCCUAAGGAGAAGACUGCGGGUUCGAGUCCCGUAAGGAGCG [C66A A70G] ?
Resp: 0.764

Req: Which yeast fitness value belongs to GUUCCGUAGGCGUAGUGGUAACGCGUAUCCCUCCUAAGGAGAAGACUGCGGGUUCGAGUCCCGUACGGAACG [U8A A15G C27A] ?
Resp: 0.549

Req: Which yeast fitness value belongs to GUUCCGCUGGCGUAAUGGUAACGCGUCUCCCUCCUAAGGAGAAGCCUGCAGGUUCGAGUCCUGUACGGAACG [U7C A45C G50A C62U] ?
Resp: 0.547

Req: Which yeast fitness value belongs to GUUCCGUUGGCGUAAUGGUAACGAGUCUCCCUCCUAAGGAGAAGACUGCGGGUUCGAGUCCCGUACCGAACG [C24A G67C] ?
Resp: 0.74

Req: Which yeast fitness value belongs to GUCCCGUUGGCGUAAUGGUAACGCGUCUGGCUCCUAAGGAGAAGACUGAGGGUUCCAGUCUCGUACGGAACG [U3C C29G C30G C49A G56C C61U] ?
Resp: 0.789

Req: Which yeast fitness value belongs to GUUCCGUUGGCGUAAUGGUAACGCGUCUCCCUCCUAAGGAGAAGACUGCGGGUUCGAGUACCGUACGGUACG [C60A A69U] ?
Resp: 0.746

***
Req: Which yeast fitness value belongs to GUUCCGUUGCCGUAAUGGUACCGCGUCUCGCCCCUAAGGAGAAGACUGCGGGUUCGAGUUCCGUACCGAACG [G10C A21C C30G U32C C60U G67C] ?
Resp: 0.54

Req: Which yeast fitness value belongs to GUUCCGUGGGCGUAAUGGUAACGGGUCUCCCUCCUAAGGAAAAGACUGCGGGUUCGAGUCCCGUACGGAACG [U8G C24G G41A] ?
Resp: 0.553

Req: Which yeast fitness value belongs to GUUCGGUUGGCGUAAUGGUAACGCGUCUCCCUCCUAAAGAGAAGACUGCGGGUUCGAGUCCCGUACGGAACG [C5G G38A] ?
Resp: 0.729
